# Test System: UniProtKB P19793
# Sequence (whole entry): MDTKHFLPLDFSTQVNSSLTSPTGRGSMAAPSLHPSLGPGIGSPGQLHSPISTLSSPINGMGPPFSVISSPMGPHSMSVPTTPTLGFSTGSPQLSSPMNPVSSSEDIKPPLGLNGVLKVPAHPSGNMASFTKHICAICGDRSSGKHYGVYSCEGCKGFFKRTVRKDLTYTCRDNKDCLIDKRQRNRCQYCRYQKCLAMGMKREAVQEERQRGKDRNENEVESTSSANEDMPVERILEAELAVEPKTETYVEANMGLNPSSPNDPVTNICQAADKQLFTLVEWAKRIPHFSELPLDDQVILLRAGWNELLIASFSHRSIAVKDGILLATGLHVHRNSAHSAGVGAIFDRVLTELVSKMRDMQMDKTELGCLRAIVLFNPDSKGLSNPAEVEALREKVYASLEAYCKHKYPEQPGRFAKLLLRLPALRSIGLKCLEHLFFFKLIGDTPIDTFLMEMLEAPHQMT
# Experiment Summary: Agonist activity at human RXRalpha expressed in african green monkey COS1 cells assessed as induction of RXRE transcriptional activity at 12.5 uM after 12 hrs by luciferase reporter gene assay relative to control
# Assay type: functional, cell-based
# Assay Conditions: COS-1
Measured Metric: fold change (FC)
Write the number on its own, no unit after it.

# fold change (FC) (compound: `CNCCCn1c2c(c3ccc(N)cc3c1=O)C(=O)c1ccccc1-2` ) is 8.97

# fold change (FC) (compound: `CC(=O)Nc1ccc2c3c(n(CCCN)c(=O)c2c1)-c1ccccc1C3=O` ) is 3.55

# fold change (FC) (compound: `CC(=O)NCCCn1c2c(c3ccc(N)cc3c1=O)C(=O)c1ccccc1-2` ) is 3.52

# fold change (FC) (compound: `CNc1ccc2c3c(n(CCCN)c(=O)c2c1)-c1ccccc1C3=O` ) is 6.09
